- testDetails: Solubility of Compound I maleate salt in solvents (saturated solution, HPLC)
- Format: physicochemical
- experimentalConditions: 50 °C, organic solvent or mixture, thermodynamic from solid; solvent MEK; 50±1° C., 24 hours
Structures can show the parent of a compound that is named as a salt.
measureName: solubility at 24 h
Note to self: number, then unit, no commentary.

### Prompt For the compound CC(C)C(=O)N1CCC(c2cc(-c3ccc(NC(=O)c4cn(C(C)C)c(=O)n(-c5ccccn5)c4=O)cc3)c3c(N)ncnn23)CC1 [Compound I maleate salt] , what solubility at 24 h is on record?
### Response 2190 µg/mL
